Reference source: paper PMC11005391

Molecular target: the molecule itself
Assay: cell-based or functional assay
Quick reference: In vitro activity (% of WT), EnzChek pyrophosphate assay, forward reaction of the listed items.
metric.name: In vitro activity (% of WT), EnzChek pyrophosphate assay, forward reaction

>>> result("PaUGP H74A (enzyme, UDP-glucose pyrophosphorylase of Pseudomonas aeruginosa (galU), residues 1-279, point mutant of Strep-PaUGP; Same construct as m1; source: E. coli BL21(DE3), purified (Strep-Tactin Sepharose); not shown: Strep-tagII, N-terminal, kept) MIKKCLFPAAGYGTRFLPATKAMPKEMLPVVNKPLIQYAVEEALEAGLSEIGIVTGRGKRSLEDHFDISYELEAQIRNTDKEKYLVGIRRLIDECTFAYTRQVEMKGLGHAILTGRPLIGDEPFAVVLADDLCLNLEGDSVLKQMVKLYNQFRCSIVAIQEVPPEETNKYGVIAGEMIRDDIFRVNTMVEKPKPEEAPSNLAIIGRYILTPDIFDLIEQTEPGKGGEIQITDALMKQAQDGCVLAYKFKGKRFDCGSAEGYIEATNFCYENLYKTGKAH")
"60.3 % of WT"
>>> result("PaUGP N32D (enzyme, UDP-glucose pyrophosphorylase of Pseudomonas aeruginosa (galU), residues 1-279, point mutant of Strep-PaUGP; Same construct as m1; source: E. coli BL21(DE3), purified (Strep-Tactin Sepharose); not shown: Strep-tagII, N-terminal, kept) MIKKCLFPAAGYGTRFLPATKAMPKEMLPVVDKPLIQYAVEEALEAGLSEIGIVTGRGKRSLEDHFDISYELEHQIRNTDKEKYLVGIRRLIDECTFAYTRQVEMKGLGHAILTGRPLIGDEPFAVVLADDLCLNLEGDSVLKQMVKLYNQFRCSIVAIQEVPPEETNKYGVIAGEMIRDDIFRVNTMVEKPKPEEAPSNLAIIGRYILTPDIFDLIEQTEPGKGGEIQITDALMKQAQDGCVLAYKFKGKRFDCGSAEGYIEATNFCYENLYKTGKAH")
"110 % of WT"
